Test: Inhibition of rat small intestinal mucosal alpha-glucosidase using p-nitrophenyl-alpha-D-glucopyranoside as substrate by HPLC method
Result type: IC50 (nM)

{"Molecule": "CC(C)=CCC/C(C)=C/CCC1=C[C@H](c2ccc(C(C)(C)C)cc2)OC1=O", "Val": 40}

1: CC(C)=CCC/C(C)=C/CCC1=C[C@H](c2ccc(C)cc2)OC1=O
2: CCc1ccc([C@H]2C=C(CC/C=C(\C)CCC=C(C)C)C(=O)O2)cc1
3: CC(C)=CCC/C(C)=C/CCC1=C[C@H](c2ccc(C(C)C)cc2)OC1=O
## Input Arrange the 3 entries by IC50 so the values rise. Labels, requested order.
## Output 2, 1, 3

###

Assay: Cmax in Sprague-Dawley rat at 2 mg/kg, po
Type: ADME, organism-based
Design: dose 2 mg/kg, route oral
Details: in vivo
Result type: Cmax (ng/mL)
// note: answer is a bare numeric in ng/mL

## Input Read the entry `CC(C)=CCC/C(C)=C/CCC1=C[C@H](c2ccc(C(C)(C)C)cc2)OC1=O` and write its reported Cmax.
## Output 49.3

###

Assay: Inhibition of rat small intestinal mucosal alpha-glucosidase using p-nitrophenyl-alpha-D-glucopyranoside as substrate after 40 mins by colorimetric method
Result type: IC50 (nM)

P: CC(C)=CCC/C(C)=C/CCC1=C[C@H](c2ccc3ccccc3c2)OC1=O
Q: COCOc1ccccc1[C@H]1C=C(CC/C=C(\C)CCC=C(C)C)C(=O)O1
R: CC(C)=CCC/C(C)=C/CCC1=C[C@H](c2cc(O)ccc2O)OC1=O
S: CC(C)=CCC/C(C)=C/CCC1=C[C@H](c2ccc(C(C)C)cc2)OC1=O
T: C[C@H]1O[C@H](O[C@H]2[C@H](O)[C@@H](O)[C@@H](O[C@H]3[C@H](O)[C@@H](O)C(O)O[C@@H]3CO)O[C@@H]2CO)[C@H](O)[C@@H](O)[C@@H]1N[C@H]1C=C(CO)[C@@H](O)[C@H](O)[C@H]1O (stereo partly specified) [ACARBOSE]
## Input sort_by: IC50; order: ascending; scope: items listed above Respond with the label ranking, as requested.
## Output R, T, P, Q, S
(R: 380 nM, T: 1260 nM, P: 5980 nM, Q: 19300 nM, S: 32800 nM)

A: CC(C)=CCC/C(C)=C/CCC1=C[C@H](c2ccc([N+](=O)[O-])cc2)OC1=O
B: CC(C)=CCC/C(C)=C/CCC1=C[C@H](c2ccccc2[N+](=O)[O-])OC1=O
C: CC(C)=CCC/C(C)=C/CCC1=C[C@H](c2ccccc2)OC1=O
D: CC(C)=CCC/C(C)=C/CCC1=C[C@H](c2cc(F)c(F)c(F)c2)OC1=O
## Input Parameters: sort_field (IC50), sort_dir (desc). Use the labels to give the requested order.
## Output A, D, C, B

a: CC(C)=CCC/C(C)=C/CCC1=C[C@H](c2ccc(C)cc2)OC1=O
b: CC(C)=CCC/C(C)=C/CCC1=C[C@H](c2cc(F)ccc2F)OC1=O
c: CCc1ccc([C@H]2C=C(CC/C=C(\C)CCC=C(C)C)C(=O)O2)cc1
d: COc1ccc(OC)c([C@H]2C=C(CC/C=C(\C)CCC=C(C)C)C(=O)O2)c1
e: COc1ccc([C@H]2C=C(CC/C=C(\C)CCC=C(C)C)C(=O)O2)cc1
## Input # rank by IC50, ascending (min first) # answer = labels listed in requested order
## Output c, a, b, d, e
(c: 170 nM, a: 290 nM, b: 1590 nM, d: 12100 nM, e: 21700 nM)

###

Target: 3-hydroxy-3-methylglutaryl-coenzyme A reductase (Sus scrofa, UniProt Q1W675)
Sequence (Q1W675 whole entry): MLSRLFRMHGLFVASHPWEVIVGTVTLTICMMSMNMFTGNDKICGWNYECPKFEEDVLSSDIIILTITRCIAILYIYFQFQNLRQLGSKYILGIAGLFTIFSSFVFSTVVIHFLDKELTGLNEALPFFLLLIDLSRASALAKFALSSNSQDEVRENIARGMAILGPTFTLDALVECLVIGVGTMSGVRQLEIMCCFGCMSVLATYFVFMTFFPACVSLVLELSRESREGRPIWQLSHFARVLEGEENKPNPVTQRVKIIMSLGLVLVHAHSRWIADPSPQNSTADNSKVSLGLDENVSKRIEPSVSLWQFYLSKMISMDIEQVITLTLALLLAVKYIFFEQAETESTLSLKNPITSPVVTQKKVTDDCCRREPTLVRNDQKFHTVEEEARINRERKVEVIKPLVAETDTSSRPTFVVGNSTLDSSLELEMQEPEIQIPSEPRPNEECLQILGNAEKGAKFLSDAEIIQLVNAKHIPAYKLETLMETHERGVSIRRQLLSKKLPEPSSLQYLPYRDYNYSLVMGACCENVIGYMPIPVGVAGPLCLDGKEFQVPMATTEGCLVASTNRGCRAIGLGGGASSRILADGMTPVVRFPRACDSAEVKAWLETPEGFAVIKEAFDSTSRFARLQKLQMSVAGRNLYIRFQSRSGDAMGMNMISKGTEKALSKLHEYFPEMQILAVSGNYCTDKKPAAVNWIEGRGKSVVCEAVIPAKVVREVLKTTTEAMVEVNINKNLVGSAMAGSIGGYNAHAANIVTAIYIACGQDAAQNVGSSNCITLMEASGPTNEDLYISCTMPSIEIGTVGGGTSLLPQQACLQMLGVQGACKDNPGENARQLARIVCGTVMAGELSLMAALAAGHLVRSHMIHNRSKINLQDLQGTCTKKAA
Result type: IC50 (µM)

Look over these answered cases.
{"Molecule": "CC(C)=CCC/C(C)=C/CCC1=C[C@H](c2ccc(C(C)(C)C)cc2)OC1=O", "Tested on": "3-hydroxy-3-methylglutaryl-coenzyme A reductase (Sus scrofa, UniProt Q1W675)", "Result type": "IC50", "Val": 5.82}
{"Molecule": "CC(C)=CCC/C(C)=C/CCC1=C[C@H](c2ccc(C(C)C)cc2)OC1=O", "Tested on": "3-hydroxy-3-methylglutaryl-coenzyme A reductase (Sus scrofa, UniProt Q1W675)", "Result type": "IC50", "Val": 112}
{"Molecule": "COc1ccc(OC)c([C@H]2C=C(CC/C=C(\\C)CCC=C(C)C)C(=O)O2)c1", "Tested on": "3-hydroxy-3-methylglutaryl-coenzyme A reductase (Sus scrofa, UniProt Q1W675)", "Result type": "IC50", "Val": 13.2}
{"Molecule": "CC(C)c1c(C(=O)Nc2ccccc2)c(-c2ccccc2)c(-c2ccc(F)cc2)n1CC[C@@H](O)C[C@@H](O)CC(=O)O", "Tested on": "3-hydroxy-3-methylglutaryl-coenzyme A reductase (Sus scrofa, UniProt Q1W675)", "Result type": "IC50", "Val": 0.93}

a: CC(C)=CCC/C(C)=C/CCC1=C[C@H](c2ccc([N+](=O)[O-])cc2)OC1=O
b: CC(C)=CCC/C(C)=C/CCC1=C[C@H](c2ccc3ccccc3c2)OC1=O
## Input Response body: label of entry with the larger IC50; valid values a , b . // caller expects the label of the chosen entry
## Output b

###

Assay: Tmax in Sprague-Dawley rat at 2 mg/kg, po
Format: ADME, organism-based
Conditions: in vivo
Result type: Tmax (h)
The figure you give is taken to be in h; do not add the unit.

## Input Determine its reported Tmax: `CC(C)=CCC/C(C)=C/CCC1=C[C@H](c2ccc(C(C)(C)C)cc2)OC1=O`
## Output 7
